- procedure details: inhibitors of MT1-MMP promoter transcription, cell-based, luciferase reporter, luminescence (AID 618);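 also: actives suppress MT1-MMP promoter-driven transcription so potencies describe inhibitors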
- stated conditions: MT1-MMP promoter luciferase reporter cells
In all, about 87,000 compounds went through this assay and about 540 (0.62%) were called active. No rule for the calls is given here. Only a selection was taken, and actives are over-represented in it overall. Measured potencies and affinities stand elsewhere.
# valid calls are active, inactive; nothing else

Look over these answered cases.
compound	label value
COc1ccc(C(=O)Nc2c(F)c(F)c(F)c(F)c2F)c(OC)c1	inactive
O=C(CC(=O)Nc1ccccn1)Nc1ccccn1	inactive
Cc1c(C(N)=O)sc2nc(-c3ccccc3)cn12	inactive

Recorded test call requested for O=c1c2ccccc2nc2n1CCC2
inactive

Recorded test call requested for O=C(Nc1nc(-c2ccccn2)cs1)C1COc2ccccc2O1 (centres undefined)
inactive

Recorded test call requested for COc1cccc(C(=O)/C=C/Nc2cc(C)ccc2O)c1
inactive

Cited source for all entries: PubChem BioAssay AID618
